Tested on: HepG2 cells
Assay: HepG2 cell toxicity (MTT) assay
Type: cell-based
Settings: Table 13; read-out: HepG2 TC50
Form field: CC50 (one value per entry).

// worked examples, CC50 included
smiles.notation	measurement.label	result
Fc1cccc(COc2ccc(Nc3ccnc4cc(-c5cccc(N6CCOCC6)c5)ccc34)cc2Cl)c1	CC50	> 5 µM
Fc1cccc(COc2ccc(Nc3cnnc4ccc(-c5cccc(N6CCOCC6)c5)cc34)cc2Cl)c1	CC50	> 15 µM

Recorded CC50 of O=S(=O)(c1ccc(-c2ccc3c(Nc4ccc(OCc5ccccc5)c(Cl)c4)nccc3c2)cc1)N1CCOCC1 , please.
> 5 µM

----------
Test system: T. brucei brucei Lister 427
Assay: Trypanosome replication assay
Type: cell-based, Trypanosoma brucei brucei
Conditions: Trypanosoma brucei, 48 h, read-out: Tbb EC50, concentration giving 50% inhibition of growth of T brucei brucei Lister 427 cells; 48 h; values ±7%
measurement.label: EC50 (nM)
Numeric only. Scale: nM

Look over these answered cases.
compound	EC50 (nM)
CN1CCN(S(=O)(=O)c2ccc(-c3ccc4cnnc(Nc5ccc(OCc6cccc(F)c6)c(Cl)c5)c4c3)cc2)CC1	2000
CN1CCCN(S(=O)(=O)c2ccc(-c3ccc4c(Nc5ccc(OCc6cccc(F)c6)c(Cl)c5)nncc4c3)cc2)CC1	510
O=S(=O)(c1cccc(-c2ccc3ncnc(Nc4ccc(OCc5cccc(F)c5)c(Cl)c4)c3c2)c1)N1CCCCC1 [Compound 10m]	460

Quick check: EC50 of Fc1cccc(COc2ccc(Nc3ncnc4ccc(-c5ccc(N6CCCCC6)cc5)cc34)cc2Cl)c1 [Compound 23h] ?
380

Param item = CN1CCCN(S(=O)(=O)c2ccc(-c3ccc4cnnc(Nc5ccc(OCc6cccc(F)c6)c(Cl)c5)c4c3)cc2)CC1 ; retrieve measured EC50.
620

Can you look up the measured EC50 of Fc1cccc(COc2ccc(Nc3ncnc4ccc(-c5cccc(N6CCCCC6)c5)cc34)cc2Cl)c1 [Compound 23g] for me?
760

Value lookup for EC50; key = O=C(c1cccc(-c2ccc3ncnc(Nc4ccc(OCc5cccc(F)c5)c(Cl)c4)c3c2)c1)N1CCCCC1 [Compound 23k]
140
